# System: ACHN renal
# test-name: NCI-60 one-dose screen, 48 h
# condition-info: 10 µM
The panel holds about 83,000 compounds, 20% with a hit somewhere; the sample as a whole holds those more often. Active and inactive are the calls of the source. How the source made its calls: active means growth percent below 10; inactive means the rest.
API: response.call in t (active), f (inactive)

What did this assay record as the result for `O=C1Nc2cc(Cl)ccc2/C1=C/c1cccc(OCc2ccc(Br)cc2F)c1` ?
f

// return assay outcome for `COc1cccc(-c2ccc(/C=N/NC(=O)c3[nH]c4ccc(Br)cc4c3-c3ccccc3)o2)c1`
f

Query: recorded result category for `COc1ccc(N(C)c2cc(C#N)nc3ccccc23)cc1/C=C/C(=O)NO` in this test
t

Hi team, can someone confirm the assay call for `CC(=O)Nc1ccc(-c2cn(-c3cccc(C(=O)Nc4cccc(OC(F)(F)F)c4)c3)nn2)cn1` ?
f

What outcome does the record of this test show for `O=C(NO)c1ccc(CNc2nc(-c3ccccc3)c3ccccc3n2)cc1` ?
t

Just curious, what result did COC(=O)C(Cc1ccc(O)c(O)c1)NC(=O)C(CSC/C=C(\C)CCCC(C)CCCC(C)CCCC(C)C)NC(C)=O (stereo not drawn) get here?
f

====

# Test system: COLO 205 colon
# test-name: NCI-60 one-dose screen, 48 h (100 = growth as untreated, 0 = no growth, -100 = all killed)
# condition-info: 10 µM
Compounds without any hit were thinned out: in the full panel of roughly 83,000, 20% have a hit.
readout-name: growth (%)
Record the value in %, omitting the unit from your answer.

Example cases with answers are listed next.
COC(=O)CC1CC1C1Cc2c(nc(N(C)S(C)(=O)=O)nc2C(C)C)-c2ccc(F)cc21 (centres undefined) | 90.8
COC[C@@H](CC(C)C)N=C1NC(=O)/C(=C/c2ccc3ncsc3c2)N1 | -11.8
C/C(=C\CC/C=C(\C)CC/C=C(\C)CC[C@@H](O)C(C)(C)O)CC/C=C(\C)CC[C@@H](O)C(C)(C)O | 41.9
COc1cc2c3c(n(CCCN4CCOCC4)c(=O)c2cc1OC)-c1nc2c(cc1C3=O)OCO2 | 13
CC(=O)NCC1=C(C)C=C2C(=O)[C@](C)(O)C3(CC3)C(C)=C21 | -81.4

Any idea what its growth is? The compound is CC1=C(C(=O)OC(C)C)C(c2ccc(O)cc2)NC(=S)N1 (centres undefined)
119

Can you share its growth? I mean this compound: `O=C(CS(=O)(=O)c1oc(-c2ccc(Cl)cc2)nc1S(=O)(=O)c1ccccc1)N1CCCC1`
-91

Looking for the measured growth of `CC1(C)CC[C@]23CC[C@]4(C)[C@H](CC[C@@H]5[C@@]6(C)CC[C@H](N)C(C)(C)[C@@H]6CC[C@]54C)[C@H]2[C@H]1OC3=O` , can you help?
-69.5

Sample `Cc1ccc(C(=O)NNC(=O)CSc2nc3ccccc3c(=O)[nH]2)cc1` — what was its growth?
97.8

====

# Test system: RPMI-8226 leukemia
# test-name: NCI-60 one-dose screen, 48 h (100 = growth as untreated, 0 = no growth, -100 = all killed)
# condition-info: 10 µM
Compounds without any hit were thinned out: in the full panel of roughly 83,000, 20% have a hit.
Tick 1.0 if growth is 60% or greater. Tick 0.0 if growth is less than 60%.

O=C(NO)c1ccc(CNC(=O)[C@H]2Cc3c([nH]c4ccccc34)[C@H](c3ccccc3)N2)cc1 | 0.0

Item `N#Cc1ccc(NC(=O)CSc2ccc(-c3ccc(Br)cc3)nn2)cc1` with growth of 60% or above?
0.0

Assess whether reported growth for `COc1ccc2nc(Cl)c(-c3cc(-c4ccccc4)nc(=S)[nH]3)cc2c1` sits at 60% or higher.
1.0

Has `C=C(c1ccc(OC)c(N)c1)c1cc(C)nc2ccccc12` a recorded growth greater than or equal to 60%?
0.0

Decide: is the reported value of growth for `Brc1ccc(N/N=C/c2c[nH]c3ccccc23)nc1` equal to or greater than 60%?
0.0

====

# System: HS 578T breast
# test-name: NCI-60 one-dose screen, 48 h
# condition-info: 10 µM
This is part of a sample that, as a whole, favours compounds with a hit. Of some 83,000 tested, about 20% had one in any assay. Activity calls are given as the source filed them. Rule for the calls: active = growth percent below 10; inactive = the rest.
Hi there, use one of these labels in your reply, thanks! active, inactive

Some solved entries appear below for comparison.
Nc1n[nH]c2cccc(C#Cc3cccc(NC(=O)Nc4cc(C(F)(F)F)cc(C(F)(F)F)c4)c3)c12 | active
CN1C(=O)N(C)C2SC(N/N=C/c3cccs3)=NC21 (centres undefined) | inactive
O=C(CSc1nnc(-c2c[nH]c3ccccc23)n1-c1ccccc1)Nc1ccc(C(=O)/C=C/c2ccccc2Cl)cc1 | inactive

Any idea what this test logged for O=C(c1ccc(Cl)cc1)C1[C@H](c2ccccc2Br)[C@@H](c2ccccc2)NC12C(=O)Nc1ccc(Br)cc12 (some centres undefined) ?
inactive

====

Listed here: items and their measured growth.
# System: CAKI-1 renal
# test-name: NCI-60 one-dose screen, 48 h (100 = growth as untreated, 0 = no growth, -100 = all killed)
# condition-info: 10 µM
The panel holds about 83,000 compounds, 20% with a hit somewhere; the sample as a whole holds those more often.
Number in %, nothing else.

COc1ccc(NC(=O)Nc2ccc(OCC(=O)N=Nc3c(O)[nH]c4ccc([N+](=O)[O-])cc34)cc2)cc1 | 92.5
Cc1nn(-c2ccccc2)c2ncn(CC(=O)N/N=C/c3c[nH]c4ccccc34)c(=O)c12 | 71.9
COc1ccc(C(=O)CSc2nnc(-c3c[nH]c4ccccc34)n2-c2ccccc2)cc1 | 61.5
CO[C@H]1CSS[C@@H]1Cn1nc(-c2ccc(Oc3ccccc3)cc2)c2c(N)ncnc21 | 11.3

If you can, please state the reported growth value of `O=C(NO)c1ccc(Cn2ccc3c(NCc4ccccc4)ncnc32)cc1` .
2.72

====

# Tested on: HOP-92 NSCLC
# test-name: NCI-60 one-dose screen, 48 h (100 = growth as untreated, 0 = no growth, -100 = all killed)
# condition-info: 10 µM
About 83,000 compounds went through this panel and 20% of them were active in at least one assay; those are over-represented in the sample as a whole.
Kindly return 1 (yes) if reported growth is no lower than 40%; return 0 (no) if it is lower.

Cc1ccc2nc3c(nc2c1)c1cc(I)ccc1n3CCN(C)C | 0 (no)
Nc1nc(-c2ccccc2)cc(-c2cc3ccccc3nc2Cl)n1 | 1 (yes)
c1ccc(C(=C(c2ccc(OCCN3CCCCC3)cc2)c2ccc(OCCN3CCCCC3)cc2)C2CCCC2)cc1 | 0 (no)
O=C(c1ccc(-n2c(=O)[nH]c3ccccc3c2=O)cc1)N1CCOCC1 | 1 (yes)

Given `Nc1nnc(-c2c[nH]c3ncccc23)c(-c2c[nH]c3ccc(Br)cc23)n1` , state whether its growth is at least 40%.
1 (yes)

Hi team, for `O=C(CSc1nnc(-c2c[nH]c3ccccc23)n1-c1ccccc1)Nc1ccc(C(=O)/C=C/c2ccc(Cl)cc2)cc1` , is the recorded growth at or above 40%?
1 (yes)

Quick check: does `COc1ccc2nc(Nc3cccc(NC(=O)c4ccc(CN5CCN(C)CC5)c(C(F)(F)F)c4)c3)ccc2c1` have growth greater than or equal to 40%?
0 (no)

Identify whether the reported growth of the following molecule is 40% or greater: `O=C(Cn1cc(CSc2nnc3oc4ccccc4n23)nn1)Nc1ccc(Br)cc1`
0 (no)

====

# Test system: SNB-75 CNS
# test-name: NCI-60 one-dose screen, 48 h (100 = growth as untreated, 0 = no growth, -100 = all killed)
# condition-info: 10 µM
This is part of a sample that, as a whole, favours compounds with a hit. Of some 83,000 tested, about 20% had one in any assay. The source made the active and inactive calls. The calls were made as follows: active = growth percent below 10; inactive = the rest.
Listing: growth of selected compounds

Observe how each entry below is paired with its result.
C#CCNC(=O)[C@]12CCC(C)(C)C[C@H]1C1=CC[C@@H]3[C@@](C)(CCC#N)[C@H](C(=C)C)CC[C@@]3(C)[C@]1(C)CC2 | 82.5% (inactive)
O=C(Nc1cc(Cl)cc(Cl)c1)Nc1cc(Cl)cc(Cl)c1 | -14.1% (active)
Cc1ccn2c(C(=O)c3ccccc3)cc(-c3cc(-c4ccc(N(C)C)cc4)c(C#N)c(N)n3)c2c1 | 78.4% (inactive)

Which growth value is on record for `O=C(Nc1ccncc1)c1ccc(-n2c(=O)[nH]c3ccccc3c2=O)cc1` ?
107% (inactive)

Request the reported growth associated with `O=C(NO)c1ccc(CNc2nc(-c3ccccc3)c3ccccc3n2)cc1`
29% (inactive)

Requested read-out: growth. Entry: `COc1ccc(CCN2C(=O)/C(=C/c3csc(C#N)n3)SC2=S)cc1`
53.2% (inactive)

Entry `COc1cc2c3c(n(CCCNCCO)c(=O)c2cc1OC)-c1nc2c(cc1C3=O)OCO2` : reported growth = ?
18.8% (inactive)

May I ask what growth has been recorded for `CN1CCN(Cc2ccc(NC(=O)c3cncc(C#Cc4cnc5ccc(N[C@@H]6CCOC6)nn45)c3)cc2C(F)(F)F)CC1` ?
-96.1% (active)

For the compound `COc1ccsc1/C=N/NC(=O)c1[nH]c2ccc(Br)cc2c1-c1ccccc1` , what growth is on record?
20.1% (inactive)
